# TESTED_ON: T1, hK1 (human tissue kallikrein 1), recombinant (human, UniProt P06870 25-262)
# T1 construct: Expressed in P. pastoris from KLK1 cDNA and purified; enzymatically active; also called KLK1; Recombinant (Pichia) Kallikrein
# TEST_METHOD_NOTES: SPR
PARAMETER_MEASURED: kon (M⁻¹ s⁻¹)

>>> measured_result("M0092-F08 (Fab, V domains shown) VH: EVQLLESGGGLVQPGGSLRLSCAASGFTFSHYPMIWVRQAPGKGLEWVSGIYSSGGTTKYADSVKGRFTISRDNSKNTLYLQMNSLRAEDTAVYYCARVGVWYGMDVWGQGTTVTVSS VL: DIQMTQSPATLSLSPGERATLSCGASQSVSSSYLAWYQQKPGLAPRLLIYDASSRATGIPDRFSGSGSGTDFTLTISSLQPEDFATYYCLHDYNFPFTFGPGTKVDIKR")
218000
>>> measured_result("M0125-C04 (Fab, V domains shown) VH: EVQLLESGGGLVQPGGSLRLSCAASGFTFSHYVMDWVRQAPGKGLEWVSSIYPSGGWTRYADSVKGRFTISRDNSRNTLYLQMNSLRAEDTAVYYCARRGQWLVLDYWGQGTLVTVSS VL: AQSELTQPASVSGSPGQSITISCAGTSSDLGGYDYVSWYQQYPGKAPKLIIYQVGRRPSGVSNRFSGSKSGNTASLTISGLQTEDEADYYCSSYTSSRTRVFGGGTRVTVLG")
478000
>>> measured_result("M0131-D12 (Fab, V domains shown) VH: EVQLLESGGGLVQPGGSLRLSCAASGFTFSWYNMYWVRQAPGKGLEWVSYIVPSGGATHYADSVKGRFTISRDNSKNTLYLQMNSLRAEDTAVYYCARALRGYSYGPRGYYYYGMDVWGQGTTVTVSS VL: AQSALTQPPSVSVAPGQTASISCSGNILDNSYASWFQQKPGQSPVMVIHRDNKRPSGIPERFSGSTSGNTATLTISGTQAVDEADYYCQAWDRTTGVFGTGTRLTVLR")
105000

Reference source: patent US7329737
